- measured.target: HDM2 (Homo sapiens, UniProt Q00987)
- Construct: Thioredoxin (N); made in house; host or cells: E. coli BL21(DE3)Rosetta (pET32a)
- Sequence (Q00987 17-125): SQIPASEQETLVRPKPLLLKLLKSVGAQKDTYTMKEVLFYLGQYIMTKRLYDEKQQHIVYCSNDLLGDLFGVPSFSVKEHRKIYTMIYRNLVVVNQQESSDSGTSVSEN
- run.description: HDM2 FRET assay (inhibition of p53 peptide binding to HDM2)
- conditions.used: Table 1, printed in the FRET IC50 column; at 1000 nM compound
parameter: inhibition at 1 µM (%)
API: value field is a number in %; no unit string.

What value of inhibition at 1 µM has been recorded for this entry: CC1CCCN(c2nc(-c3noc(=O)[nH]3)nc3ncn(C[C@H]4CC[C@H](C)CC4)c23)C1 (stereo partly shown) [Example 1.11] 43

What value of inhibition at 1 µM has been recorded for this entry: CC1(C)CCCN(c2nc(-c3noc(=O)[nH]3)nc3ncn(C[C@H]4CC[C@H](C)CC4)c23)C1 [Example 1.12] 43

What value of inhibition at 1 µM has been recorded for this entry: C[C@H]1CC[C@H](Cn2cnc3nc(-c4noc(=O)[nH]4)nc(N4CCCC(C(F)(F)F)C4)c32)CC1 (stereo partly shown) [Example 1.10] 37

What value of inhibition at 1 µM has been recorded for this entry: COc1cccc(Oc2nc(-c3noc(=O)[nH]3)nc3ncn(C[C@H]4CC[C@H](C)CC4)c23)c1 [Example 1.9] 39

----------
Please respond with reported pIC50 for every item in the list.
- measured.target: HDM2 (Homo sapiens)
- Construct: Thioredoxin (N); made in house; host or cells: E. coli BL21(DE3)Rosetta (pET32a)
- run.description: HDM2 FRET assay (inhibition of p53 peptide binding to HDM2)
- conditions.used: Table 2; truncated HDM2 residues 17 to 125, 0.5 nM HDM2, 3 nM FITC labeled 8-mer peptide, two hour incubation
Please keep in mind that pIC50 is minus log10 of the molar concentration; only the number is needed.

What value of pIC50 has been recorded for this entry: Cc1ncc(Cl)cc1-c1nc(-c2noc(=O)[nH]2)nc2ncn(C[C@H]3CC[C@H](C)CC3)c12 [Example 2.21] 7.06

What value of pIC50 has been recorded for this entry: C[C@H]1CC[C@H](Cn2cnc3nc(-c4noc(=O)[nH]4)nc(-c4cncc(Cl)c4)c32)CC1 [Example 2.12] 7.07

What value of pIC50 has been recorded for this entry: COC(=O)c1cc(C)cc(-c2nc(-c3noc(=O)[nH]3)nc3ncn(C[C@H]4CC[C@H](C)CC4)c23)c1 [Example 2.19] 6.24

What value of pIC50 has been recorded for this entry: C[C@H]1CC[C@H](Cn2cnc3nc(-c4noc(=O)[nH]4)nc(-c4ccnc(Cl)c4)c32)CC1 [Example 2.15] 6.73

What value of pIC50 has been recorded for this entry: C[C@H]1CC[C@H](Cn2cnc3nc(-c4noc(=O)[nH]4)nc(-c4cc(Cl)cc(N5CCCC5)c4)c32)CC1 [Example 2.18] 6.48

What value of pIC50 has been recorded for this entry: C[C@H]1CC[C@H](Cn2cnc3nc(-c4noc(=O)[nH]4)nc(-c4cccc(C#N)c4)c32)CC1 [Example 2.9] 6.29

What value of pIC50 has been recorded for this entry: C[C@H]1CC[C@H](Cn2cnc3nc(C(=O)O)nc(-c4cncc(Cl)c4)c32)CC1 [Example 2.20] 6.67

What value of pIC50 has been recorded for this entry: C[C@H]1CC[C@H](Cn2cnc3nc(-c4noc(=O)[nH]4)nc(-c4cc(Cl)ccc4O)c32)CC1 [Example 2.5] 6.07

What value of pIC50 has been recorded for this entry: C[C@H]1CC[C@H](Cn2cnc3nc(-c4noc(=O)[nH]4)nc(-c4cc(Cl)ccn4)c32)CC1 [Example 2.3] 6.60

What value of pIC50 has been recorded for this entry: COc1cc(Cl)cc(-c2nc(-c3noc(=O)[nH]3)nc3ncn(C[C@H]4CC[C@H](C)CC4)c23)c1 [Example 2.6] 6.51

What value of pIC50 has been recorded for this entry: COCOc1cc(Cl)cc(-c2nc(-c3noc(=O)[nH]3)nc3ncn(C[C@H]4CC[C@H](C)CC4)c23)c1 [Example 2.14] 7.38

What value of pIC50 has been recorded for this entry: COCCOc1cc(Cl)cc(-c2nc(-c3n[nH]c(=O)o3)nc3ncn(C[C@H]4CC[C@H](C)CC4)c23)c1 [Example 2.23] 6.88

What value of pIC50 has been recorded for this entry: C[C@H]1CC[C@H](Cn2cnc3nc(-c4noc(=O)[nH]4)nc(-c4cc(Cl)cc(C(N)=O)c4)c32)CC1 [Example 2.13] 7.29

What value of pIC50 has been recorded for this entry: C[C@H]1CC[C@H](Cn2cnc3nc(-c4noc(=O)[nH]4)nc(-c4cccc(Cl)c4)c32)CC1 [Example 2.1] 7.27
